Test: in vitro
Settings: rat, gh3-tre-luc cells, AC50 (uM) modified / 1000
Reported CC50 at 24 h values for the following compounds.
ASSAY READOUT: CC50 at 24 h

{"COMPOUND": "CCCC(O)C(CC)CO (stereo not drawn)", "ASSAY READOUT": "CC50 at 24 h", "REPORTED": "> 90 µM"}
{"COMPOUND": "CN[C@@H]1CCc2[nH]c3ccc(C(N)=O)cc3c2C1 [Frovatriptan Succinate monohydrate]", "ASSAY READOUT": "CC50 at 24 h", "REPORTED": "> 50 µM"}
{"COMPOUND": "C[C@@H]1CC[C@@]2(OC1)O[C@H]1[C@@H](O)[C@H]3[C@@H]4CC[C@H]5C[C@@H](O[C@@H]6O[C@H](CO)[C@H](O[C@@H]7O[C@H](CO)[C@@H](O)[C@H](O[C@@H]8OC[C@@H](O)[C@H](O)[C@H]8O)[C@H]7O[C@@H]7O[C@H](CO)[C@H](O)[C@H](O[C@@H]8O[C@H](CO)[C@@H](O)[C@H](O)[C@H]8O)[C@H]7O)[C@H](O)[C@H]6O)[C@H](O)C[C@]5(C)[C@H]4CC[C@]3(C)[C@H]1[C@@H]2C", "ASSAY READOUT": "CC50 at 24 h", "REPORTED": "1.67 µM"}

====

Assay: in vitro
Details: rat, gh3-tre-luc cells, AC50 (uM) modified / 1000
Structures can show the parent of a compound that is named as a salt.

{"COMPOUND": "O=C1c2c(O)ccc(O)c2C(=O)c2c(NCCNCCO)ccc(NCCNCCO)c21 [Mitoxantrone dihydrochloride]", "CC50 at 24 h": "0.988 µM"}
{"COMPOUND": "CCCCCCCCC(=O)Cl [Nonanoyl chloride]", "CC50 at 24 h": "> 90 µM"}
{"COMPOUND": "NC[C@@H]1O[C@H](O[C@H]2[C@@H](O)[C@H](O[C@@H]3[C@@H](O)[C@H](N)C[C@H](N)[C@H]3O[C@H]3O[C@H](CN)[C@@H](O)[C@H](O)[C@H]3N)O[C@@H]2CO)[C@H](N)[C@@H](O)[C@@H]1O [Neomycin sulfate]", "CC50 at 24 h": "> 50 µM"}
{"COMPOUND": "CCCCCCCCCCCCSC", "CC50 at 24 h": "> 90 µM"}
{"COMPOUND": "CN(C)C(=O)COC(=O)Cc1ccc(OC(=O)c2ccc(NC(=N)N)cc2)cc1 [Camostat mesylate]", "CC50 at 24 h": "> 50 µM"}
{"COMPOUND": "Cc1cccc(C)c1N", "CC50 at 24 h": "> 90 µM"}
{"COMPOUND": "CCCC[C@H](CC)COC(=O)/C=C/c1ccc(OC)cc1 [Octinoxate]", "CC50 at 24 h": "> 90 µM"}
{"COMPOUND": "CCOc1cc(OCC)c(C(C)=O)cc1OCC", "CC50 at 24 h": "35.3 µM"}
{"COMPOUND": "NS(=O)(=O)c1cc2c(cc1C(F)(F)F)NCNS2(=O)=O [Hydroflumethiazide]", "CC50 at 24 h": "> 20 µM"}
{"COMPOUND": "CCCCCCCCCC[N+](C)(CCCCCCCCCC)CCC[Si](OC)(OC)OC [Disiquonium chloride]", "CC50 at 24 h": "25.6 µM"}
{"COMPOUND": "CC(=O)OC(C(=O)c1ccccc1)c1ccccc1 (stereo not shown) [Benzoin acetate]", "CC50 at 24 h": "> 90 µM"}
{"COMPOUND": "COS(=O)(=O)OC [Dimethyl sulfate]", "CC50 at 24 h": "> 90 µM"}
{"COMPOUND": "Nc1cc(Cl)c(O)c(Cl)c1", "CC50 at 24 h": "83.2 µM"}
{"COMPOUND": "CC(=O)OCCc1ccccc1 [2-Phenylethyl acetate]", "CC50 at 24 h": "> 90 µM"}
{"COMPOUND": "Nc1c2c(nc3ccccc13)CCCC2", "CC50 at 24 h": "> 90 µM"}
{"COMPOUND": "CCCCN1C(=O)[C@@H]([C@H](O)C2CCCCC2)NC(=O)C12CCN(Cc1ccc(Oc3ccc(C(=O)O)cc3)cc1)CC2 [Aplaviroc hydrochloride]", "CC50 at 24 h": "77.3 µM"}
